- MEASURED_TARGET: hA1AR (Homo sapiens, UniProt P30542)
- Sequence (P30542 whole entry): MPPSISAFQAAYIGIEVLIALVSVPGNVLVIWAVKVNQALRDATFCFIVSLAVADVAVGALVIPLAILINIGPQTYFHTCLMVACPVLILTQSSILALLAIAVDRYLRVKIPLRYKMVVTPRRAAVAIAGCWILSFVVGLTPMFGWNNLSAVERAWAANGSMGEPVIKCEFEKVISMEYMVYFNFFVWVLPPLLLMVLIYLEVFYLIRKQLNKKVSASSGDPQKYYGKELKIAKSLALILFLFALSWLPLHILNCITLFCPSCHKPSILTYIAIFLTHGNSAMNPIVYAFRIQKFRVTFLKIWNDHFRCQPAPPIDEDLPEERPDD
- ASSAY_SUMMARY: Radioligand binding in membranes of CHO cells expressing hA1AR, [3H]N6-R-phenylisopropyladenosine
- EXPERIMENTAL_CONTEXT: (h); Ki; read-out: A1AR % inhibition or Ki
PROPERTY: pKi
Quick note: pKi means taking -log10 of the concentration in moles per liter.

[[record]]
smiles_code = "O=C(NCCO)[C@@]12C[C@@H]1[C@@H](n1cnc3c(N[C@H]4C[C@H]5CC[C@@H]4C5)nc(Cl)nc31)[C@H](O)[C@@H]2O"
assay_result = 7.75

[[record]]
smiles_code = "CCOC(=O)[C@@]12C[C@@H]1[C@@H](n1cnc3c(NC(C4CC4)C4CC4)nc(Cl)nc31)[C@H](O)[C@@H]2O"
assay_result = 6.44

[[record]]
smiles_code = "OC[C@H]1O[C@@H](n2cnc3c(NC(C4CCC4)C4CCC4)nc(Cl)nc32)[C@H](O)[C@@H]1O"
assay_result = 7.75

[[record]]
smiles_code = "CNC(=O)[C@@]12C[C@@H]1[C@@H](n1cnc3c(NC(C4CC4)C4CC4)nc(Cl)nc31)[C@H](O)[C@@H]2O"
assay_result = 6.96

[[record]]
smiles_code = "O[C@H]1[C@H](n2cnc3c(N[C@H]4C[C@H]5CC[C@@H]4C5)nc(Cl)nc32)[C@H]2C[C@@]2(CCl)[C@H]1O"
assay_result = 7.35


Query: Give recorded pKi. OC[C@@]12C[C@@H]1[C@@H](n1cnc3c(N[C@H]4C[C@H]5CC[C@@H]4C5)nc(Cl)cc31)[C@H](O)[C@@H]2O
Response: 6.62

Query: Find the measured pKi of OC[C@@]12C[C@@H]1[C@@H](n1cnc3c(NC(C4CCC4)C4CCC4)ncnc31)[C@H](O)[C@@H]2O and report it.
Response: 7.64

Query: Give the value of pKi reported for the following: NC(=O)c1ncn([C@H]2[C@H](O)[C@H](O)[C@]3(CO)C[C@H]23)n1
Response: 6.31

Query: Hello, please tell me recorded pKi for this one: O[C@@H]1[C@H](O)[C@@H](CCl)O[C@H]1n1cnc2c(NC(C3CCC3)C3CCC3)ncnc21
Response: 8.31

----------
- MEASURED_TARGET: mA1AR (Mus musculus, UniProt Q60612)
- Sequence (Q60612 whole entry): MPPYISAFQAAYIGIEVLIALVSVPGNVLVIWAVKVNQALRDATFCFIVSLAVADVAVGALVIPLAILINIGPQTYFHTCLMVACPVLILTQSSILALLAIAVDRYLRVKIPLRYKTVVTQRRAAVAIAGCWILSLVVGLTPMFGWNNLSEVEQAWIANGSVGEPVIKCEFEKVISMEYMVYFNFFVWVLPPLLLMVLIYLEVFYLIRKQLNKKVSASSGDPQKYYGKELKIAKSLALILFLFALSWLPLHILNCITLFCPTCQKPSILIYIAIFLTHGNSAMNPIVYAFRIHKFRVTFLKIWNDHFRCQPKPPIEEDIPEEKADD
- ASSAY_SUMMARY: Adenosine receptor binding, mA1AR
- EXPERIMENTAL_CONTEXT: (m); Ki; read-out: A1AR % inhibition or Ki (converted)
Recorded Ki for the following compounds
# number only, unit nM dropped from output

[[record]]
compound = "OC[C@@]12C[C@@H]1[C@@H](n1cnc3c(NC(C4CCC4)C4CCC4)ncnc31)[C@H](O)[C@@H]2O"
measured_target = "mA1AR (Mus musculus, UniProt Q60612)"
u = "nM"
assay_result = 0.53

[[record]]
compound = "O[C@@H]1[C@H](O)[C@@H](CCl)O[C@H]1n1cnc2c(NC3CC4CCC3C4)ncnc21 (stereo partly drawn) [Compound 4, reference compound]"
measured_target = "mA1AR (Mus musculus, UniProt Q60612)"
u = "nM"
assay_result = 0.2


Now examine the next entry.
Query: Return Ki (reported value) for this compound: O[C@@H]1[C@H](O)[C@@H](CCl)O[C@H]1n1cnc2c(NC(C3CCC3)C3CCC3)ncnc21
Response: 0.71

----------
- MEASURED_TARGET: hA2AAR (Homo sapiens)
- Construct: expressed in transfected cells; host or cells: HEK293
- Sequence (P29274 whole entry): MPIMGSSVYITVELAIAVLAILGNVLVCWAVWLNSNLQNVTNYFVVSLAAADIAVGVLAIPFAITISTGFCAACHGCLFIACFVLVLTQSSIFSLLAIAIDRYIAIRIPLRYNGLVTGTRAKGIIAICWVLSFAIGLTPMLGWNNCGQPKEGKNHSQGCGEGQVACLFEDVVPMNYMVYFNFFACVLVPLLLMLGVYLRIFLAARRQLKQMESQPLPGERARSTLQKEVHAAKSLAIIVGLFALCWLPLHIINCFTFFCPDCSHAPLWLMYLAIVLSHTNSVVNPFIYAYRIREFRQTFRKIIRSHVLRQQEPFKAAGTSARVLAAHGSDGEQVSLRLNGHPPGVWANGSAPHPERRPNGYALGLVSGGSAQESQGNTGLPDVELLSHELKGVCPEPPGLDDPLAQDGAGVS
- ASSAY_SUMMARY: Radioligand binding in membranes of HEK293 cells expressing hA2AAR
- EXPERIMENTAL_CONTEXT: read-out: A2AAR % inhibition
PROPERTY: inhibition at 10 µM (%)
Report the value in % with no unit label.

[[record]]
molecule = "OC[C@@]12C[C@@H]1[C@@H](n1cnc3c(N[C@H]4C[C@H]5CC[C@@H]4C5)nc(Cl)cc31)[C@H](O)[C@@H]2O [Compound 30]"
assay_result = 29

[[record]]
molecule = "O[C@H]1[C@H](n2cnc3c(NC(C4CCC4)C4CCC4)nc(Cl)nc32)[C@H]2C[C@@]2(CCl)[C@H]1O [Compound 27]"
assay_result = 17

[[record]]
molecule = "OC[C@@]12C[C@@H]1[C@@H](n1cnc3c(NC(C4CCC4)C4CCC4)nc(Cl)nc31)[C@H](O)[C@@H]2O [Compound 25]"
assay_result = 55


Query: Consider the molecule CCOC(=O)[C@@]12C[C@@H]1[C@@H](n1cnc3c(NC(C4CCC4)C4CCC4)nc(Cl)nc31)[C@H](O)[C@@H]2O [Compound 35] and give its recorded inhibition at 10 µM.
Response: 57

From: patent US12378248B2
